Target: human H1 receptor (Homo sapiens, UniProt P35367)
Construct: expressed in transfected cells
Sequence (P35367 whole entry): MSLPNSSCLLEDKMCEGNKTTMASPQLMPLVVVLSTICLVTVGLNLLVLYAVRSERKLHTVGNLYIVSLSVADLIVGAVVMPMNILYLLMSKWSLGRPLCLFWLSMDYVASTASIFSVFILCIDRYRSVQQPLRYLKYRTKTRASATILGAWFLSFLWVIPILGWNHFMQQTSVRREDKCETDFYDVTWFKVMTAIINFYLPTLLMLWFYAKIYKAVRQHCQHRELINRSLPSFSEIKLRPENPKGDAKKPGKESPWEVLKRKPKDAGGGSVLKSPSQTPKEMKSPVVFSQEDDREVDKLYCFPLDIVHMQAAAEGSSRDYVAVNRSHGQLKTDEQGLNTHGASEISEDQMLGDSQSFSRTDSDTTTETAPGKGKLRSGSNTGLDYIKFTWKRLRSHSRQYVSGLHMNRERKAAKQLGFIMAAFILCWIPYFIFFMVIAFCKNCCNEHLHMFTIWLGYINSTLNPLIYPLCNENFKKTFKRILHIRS
Assay: Histamine H1 functional antagonist assay (FLIPR): determination of antagonist pA2
Format: cell-based
Settings: CHO cells expressing H1 receptor, shift of histamine concentration response curve
Protocol: The human H1 receptor is cloned using known procedures described in the literature [Biochem. Biophys. Res. Commun., 201(2):894 (1994)]. […] The plates are then placed into a FLIPR™ (Molecular Devices, UK) to monitor cell fluorescence (λex=488 nm, λEM=540 nm) in the manner described in Sullivan et al., (In: Lambert DG (ed.), Calcium Signaling Protocols, New Jersey: Humana Press, 1999, 125-136) before and after the addition of 50 μl histamine over a concentration range of 1 mM-0.1 nM. […]
Measured quantity: Kb

Consider the worked cases shown below.
compound="CCS(=O)(=O)CCN1CCC[C@@H]1Cn1nc(Cc2ccc(Cl)cc2)c2ccccc2c1=O [Example 1]" measured_quantity=Kb experimental_value="< 1 nM"
compound="CCS(=O)(=O)[C@H](C)CCN1CCC[C@@H]1Cn1nc(Cc2ccc(Cl)cc2)c2ccccc2c1=O [Example 5B]" measured_quantity=Kb experimental_value="< 10 nM"
compound="CCCNC(=O)NCCN1CCC[C@@H]1Cn1nc(Cc2ccc(Cl)cc2)c2cnccc2c1=O [Example 14]" measured_quantity=Kb experimental_value="< 1 nM"
compound="CCS(=O)(=O)CCCN1CCC[C@@H]1Cn1nc(Cc2ccc(Cl)cc2)c2cnccc2c1=O [Example 12]" measured_quantity=Kb experimental_value="< 1 nM"
compound="CCS(=O)(=O)NCCN1CCC[C@@H]1Cn1nc(Cc2ccc(Cl)cc2)c2ccccc2c1=O [Example 6]" measured_quantity=Kb experimental_value="< 1 nM"

Lookup: What does the record list as Kb for CCS(=O)(=O)[C@@H](C)CCN1CCC[C@@H]1Cn1nc(Cc2ccc(Cl)cc2)c2ccccc2c1=O [Example 5A] ?
Found: < 10 nM

Lookup: Using the record for CCCNC(=O)NCCN1CCC[C@@H]1Cn1nc(Cc2ccc(Cl)cc2)c2ccccc2c1=O [Example 11] , report its Kb.
Found: < 1 nM

Lookup: Query: Kb; subject: COCCCNS(=O)(=O)CCN1CCC[C@@H]1Cn1nc(Cc2ccc(Cl)cc2)c2ccccc2c1=O [Example 10]
Found: < 10 nM

Lookup: I would be grateful if you could share the reported Kb for CCCS(=O)(=O)NCCN1CCC[C@@H]1Cn1nc(Cc2ccc(Cl)cc2)c2ccccc2c1=O [Example 7] .
Found: < 1 nM

Lookup: Find the recorded Kb belonging to CCS(=O)(=O)CCCN1CCC[C@@H]1Cn1nc(Cc2ccc(Cl)cc2)c2ccccc2c1=O [Example 3] and report it.
Found: < 1 nM

Lookup: Consider the compound shown here: CCS(=O)(=O)C(C)CCN1CCC[C@@H]1Cn1nc(Cc2ccc(Cl)cc2)c2ccccc2c1=O (stereo partly shown) [Example 4] What is its recorded Kb?
Found: < 1 nM

Lookup: Fill in the blank: the reported Kb of CC(C)S(=O)(=O)NCCN1CCC[C@@H]1Cn1nc(Cc2ccc(Cl)cc2)c2ccccc2c1=O [Example 8] is ____.
Found: < 1 nM

Lookup: Give the measured Kb of CCS(=O)(=O)CCN1CCC[C@@H]1Cn1nc(Cc2ccc(Cl)cc2)c2cnccc2c1=O [Example 13] .
Found: < 10 nM
